Biological target: Mu-type opioid receptor (Mus musculus)
Assay: Agonist activity at mouse mu opioid receptor-1 expressed in CHO cell membranes assessed as [35S]GTPgammaS binding incubated for 60 mins by scintillation spectroscopic analysis relative to DAMGO
Format: functional
Field: Emax. Provide a value for each of the compounds that follow.
Reply numerically in %, unit not repeated.

# input Would you mind telling me what Emax value was observed for `CC[C@@H]1CN2CC[C@]3(Nc4ccccc4C3=O)[C@@H]2C[C@@H]1/C(=C\OC)C(=O)OC` ?
# output 116

# input Would you mind telling me what Emax value was observed for `CC[C@@H]1CN2CC[C@]3(Nc4cccc(OC)c4C3=O)[C@@H]2C[C@@H]1/C(=C\OC)C(=O)OC` ?
# output 84

# input Would you mind telling me what Emax value was observed for `CC[C@@H]1CN2CC[C@]3(Nc4cccc(C#N)c4C3=O)[C@@H]2C[C@@H]1/C(=C\OC)C(=O)OC` ?
# output 122

# input Would you mind telling me what Emax value was observed for `CC[C@@H]1CN2CC[C@]3(Nc4cccc(-c5ccoc5)c4C3=O)[C@@H]2C[C@@H]1/C(=C\OC)C(=O)OC` ?
# output 100

# input Would you mind telling me what Emax value was observed for `CC[C@@H]1CN2CCc3c([nH]c4cccc(OC)c34)[C@@H]2C[C@@H]1/C(=C\OC)C(=O)OC` ?
# output 65

----------
Molecular target: Delta-type opioid receptor (Mus musculus)
Sequence (P32300 whole entry): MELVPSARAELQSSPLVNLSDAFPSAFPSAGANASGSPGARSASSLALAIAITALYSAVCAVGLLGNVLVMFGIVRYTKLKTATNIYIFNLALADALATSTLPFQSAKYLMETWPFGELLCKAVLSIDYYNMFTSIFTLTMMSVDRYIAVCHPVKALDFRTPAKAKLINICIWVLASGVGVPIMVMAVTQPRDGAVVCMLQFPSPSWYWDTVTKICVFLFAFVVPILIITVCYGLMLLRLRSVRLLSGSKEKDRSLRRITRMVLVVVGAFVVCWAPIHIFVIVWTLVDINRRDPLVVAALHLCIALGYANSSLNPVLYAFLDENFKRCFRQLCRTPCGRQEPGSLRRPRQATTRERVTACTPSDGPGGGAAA
Assay: Displacement of [125I]-IBNtxA from mouse delta opioid receptor-1 expressed in CHO cell membranes incubated for 90 mins
Field: Ki. Provide a value for each of the compounds that follow.
Reply numerically in nM, unit not repeated.

# input Would you mind telling me what Ki value was observed for `CC[C@@H]1CN2CC[C@]3(Nc4cccc(OC(C)=O)c4C3=O)[C@@H]2C[C@@H]1/C(=C\OC)C(=O)OC` ?
# output 20

# input Would you mind telling me what Ki value was observed for `CC[C@@H]1CN2CC[C@]3(Nc4cccc(C#N)c4C3=O)[C@@H]2C[C@@H]1/C(=C\OC)C(=O)OC` ?
# output 2.4

# input Would you mind telling me what Ki value was observed for `CC[C@@H]1CN2CC[C@]3(Nc4cccc(OC)c4C3=O)[C@@H]2C[C@@H]1/C(=C\OC)C(=O)OC` ?
# output 3

# input Would you mind telling me what Ki value was observed for `CC[C@@H]1CN2CC[C@]3(Nc4ccccc4C3=O)[C@@H]2C[C@@H]1/C(=C\OC)C(=O)OC` ?
# output 2.9

# input Would you mind telling me what Ki value was observed for `CC[C@@H]1CN2CC[C@]3(Nc4cccc(O)c4C3=O)[C@@H]2C[C@@H]1/C(=C\OC)C(=O)OC` ?
# output 6.1

# input Would you mind telling me what Ki value was observed for `CC[C@@H]1CN2CC[C@@]3(C(=O)c4c(OC)cccc4N3Cc3ccccc3)[C@@H]2C[C@@H]1/C(=C\OC)C(=O)OC` ?
# output 258

# input Would you mind telling me what Ki value was observed for `CC[C@@H]1CN2CC[C@]3(Nc4cccc(-c5ccoc5)c4C3=O)[C@@H]2C[C@@H]1/C(=C\OC)C(=O)OC` ?
# output 1.5

# input Would you mind telling me what Ki value was observed for `CC[C@@H]1CN2CC[C@]3(Nc4cccc(-c5ccccc5)c4C3=O)[C@@H]2C[C@@H]1/C(=C\OC)C(=O)OC` ?
# output 0.8

----------
Target: Mu-type opioid receptor (Mus musculus, UniProt P42866)
Sequence (P42866 whole entry): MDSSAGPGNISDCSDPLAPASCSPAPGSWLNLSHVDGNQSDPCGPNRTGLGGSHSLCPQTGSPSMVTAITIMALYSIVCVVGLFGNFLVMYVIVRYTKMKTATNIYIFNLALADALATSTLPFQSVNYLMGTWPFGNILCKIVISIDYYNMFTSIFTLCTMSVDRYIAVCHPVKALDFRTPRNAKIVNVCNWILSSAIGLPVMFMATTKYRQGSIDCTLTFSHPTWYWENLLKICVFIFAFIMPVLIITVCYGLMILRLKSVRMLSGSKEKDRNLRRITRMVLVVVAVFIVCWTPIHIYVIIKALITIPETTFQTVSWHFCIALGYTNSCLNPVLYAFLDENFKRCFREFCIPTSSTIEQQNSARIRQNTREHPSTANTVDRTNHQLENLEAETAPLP
Labelling: Ki reported below 1 nM becomes Fulfilled; at or above becomes Not fulfilled.

# input API: query returns whether the compound falls strictly under 1 nM in Ki. Query: `CC[C@@H]1CN2CC[C@@]3(C(=O)c4c(OC)cccc4N3C)[C@@H]2C[C@@H]1/C(=C\OC)C(=O)OC`
# output Not fulfilled

# input API: query returns whether the compound falls strictly under 1 nM in Ki. Query: `CC[C@@H]1CN2CC[C@]3(Nc4cccc(-c5ccccc5)c4C3=O)[C@@H]2C[C@@H]1/C(=C\OC)C(=O)OC`
# output Fulfilled

# input API: query returns whether the compound falls strictly under 1 nM in Ki. Query: `CC[C@@H]1CN2CC[C@]3(Nc4ccccc4C3=O)[C@@H]2C[C@@H]1/C(=C\OC)C(=O)OC`
# output Fulfilled

# input API: query returns whether the compound falls strictly under 1 nM in Ki. Query: `CC[C@@H]1CN2CC[C@@]3(O)C(=Nc4cccc(OC)c43)[C@@H]2C[C@@H]1/C(=C\OC)C(=O)OC`
# output Not fulfilled

# input API: query returns whether the compound falls strictly under 1 nM in Ki. Query: `CC[C@@H]1CN2CC[C@]3(Nc4cccc(OC(C)=O)c4C3=O)[C@@H]2C[C@@H]1/C(=C\OC)C(=O)OC`
# output Not fulfilled

# input API: query returns whether the compound falls strictly under 1 nM in Ki. Query: `CC[C@@H]1CN2CC[C@]3(Nc4cccc(O)c4C3=O)[C@@H]2C[C@@H]1/C(=C\OC)C(=O)OC`
# output Not fulfilled

# input API: query returns whether the compound falls strictly under 1 nM in Ki. Query: `CC[C@@H]1CN2CC[C@]3(Nc4cccc(C#N)c4C3=O)[C@@H]2C[C@@H]1/C(=C\OC)C(=O)OC`
# output Fulfilled

# input API: query returns whether the compound falls strictly under 1 nM in Ki. Query: `CC[C@@H]1CN2CC[C@@]3(C(=O)c4c(OC)cccc4N3Cc3ccccc3)[C@@H]2C[C@@H]1/C(=C\OC)C(=O)OC`
# output Not fulfilled

# input API: query returns whether the compound falls strictly under 1 nM in Ki. Query: `CC[C@@H]1CN2CC[C@]3(Nc4cccc(-c5ccoc5)c4C3=O)[C@@H]2C[C@@H]1/C(=C\OC)C(=O)OC`
# output Fulfilled
